subject_of_test: Recombinant wild type LRRK2 protein (Homo sapiens, UniProt Q5S007)
Sequence (Q5S007 whole entry): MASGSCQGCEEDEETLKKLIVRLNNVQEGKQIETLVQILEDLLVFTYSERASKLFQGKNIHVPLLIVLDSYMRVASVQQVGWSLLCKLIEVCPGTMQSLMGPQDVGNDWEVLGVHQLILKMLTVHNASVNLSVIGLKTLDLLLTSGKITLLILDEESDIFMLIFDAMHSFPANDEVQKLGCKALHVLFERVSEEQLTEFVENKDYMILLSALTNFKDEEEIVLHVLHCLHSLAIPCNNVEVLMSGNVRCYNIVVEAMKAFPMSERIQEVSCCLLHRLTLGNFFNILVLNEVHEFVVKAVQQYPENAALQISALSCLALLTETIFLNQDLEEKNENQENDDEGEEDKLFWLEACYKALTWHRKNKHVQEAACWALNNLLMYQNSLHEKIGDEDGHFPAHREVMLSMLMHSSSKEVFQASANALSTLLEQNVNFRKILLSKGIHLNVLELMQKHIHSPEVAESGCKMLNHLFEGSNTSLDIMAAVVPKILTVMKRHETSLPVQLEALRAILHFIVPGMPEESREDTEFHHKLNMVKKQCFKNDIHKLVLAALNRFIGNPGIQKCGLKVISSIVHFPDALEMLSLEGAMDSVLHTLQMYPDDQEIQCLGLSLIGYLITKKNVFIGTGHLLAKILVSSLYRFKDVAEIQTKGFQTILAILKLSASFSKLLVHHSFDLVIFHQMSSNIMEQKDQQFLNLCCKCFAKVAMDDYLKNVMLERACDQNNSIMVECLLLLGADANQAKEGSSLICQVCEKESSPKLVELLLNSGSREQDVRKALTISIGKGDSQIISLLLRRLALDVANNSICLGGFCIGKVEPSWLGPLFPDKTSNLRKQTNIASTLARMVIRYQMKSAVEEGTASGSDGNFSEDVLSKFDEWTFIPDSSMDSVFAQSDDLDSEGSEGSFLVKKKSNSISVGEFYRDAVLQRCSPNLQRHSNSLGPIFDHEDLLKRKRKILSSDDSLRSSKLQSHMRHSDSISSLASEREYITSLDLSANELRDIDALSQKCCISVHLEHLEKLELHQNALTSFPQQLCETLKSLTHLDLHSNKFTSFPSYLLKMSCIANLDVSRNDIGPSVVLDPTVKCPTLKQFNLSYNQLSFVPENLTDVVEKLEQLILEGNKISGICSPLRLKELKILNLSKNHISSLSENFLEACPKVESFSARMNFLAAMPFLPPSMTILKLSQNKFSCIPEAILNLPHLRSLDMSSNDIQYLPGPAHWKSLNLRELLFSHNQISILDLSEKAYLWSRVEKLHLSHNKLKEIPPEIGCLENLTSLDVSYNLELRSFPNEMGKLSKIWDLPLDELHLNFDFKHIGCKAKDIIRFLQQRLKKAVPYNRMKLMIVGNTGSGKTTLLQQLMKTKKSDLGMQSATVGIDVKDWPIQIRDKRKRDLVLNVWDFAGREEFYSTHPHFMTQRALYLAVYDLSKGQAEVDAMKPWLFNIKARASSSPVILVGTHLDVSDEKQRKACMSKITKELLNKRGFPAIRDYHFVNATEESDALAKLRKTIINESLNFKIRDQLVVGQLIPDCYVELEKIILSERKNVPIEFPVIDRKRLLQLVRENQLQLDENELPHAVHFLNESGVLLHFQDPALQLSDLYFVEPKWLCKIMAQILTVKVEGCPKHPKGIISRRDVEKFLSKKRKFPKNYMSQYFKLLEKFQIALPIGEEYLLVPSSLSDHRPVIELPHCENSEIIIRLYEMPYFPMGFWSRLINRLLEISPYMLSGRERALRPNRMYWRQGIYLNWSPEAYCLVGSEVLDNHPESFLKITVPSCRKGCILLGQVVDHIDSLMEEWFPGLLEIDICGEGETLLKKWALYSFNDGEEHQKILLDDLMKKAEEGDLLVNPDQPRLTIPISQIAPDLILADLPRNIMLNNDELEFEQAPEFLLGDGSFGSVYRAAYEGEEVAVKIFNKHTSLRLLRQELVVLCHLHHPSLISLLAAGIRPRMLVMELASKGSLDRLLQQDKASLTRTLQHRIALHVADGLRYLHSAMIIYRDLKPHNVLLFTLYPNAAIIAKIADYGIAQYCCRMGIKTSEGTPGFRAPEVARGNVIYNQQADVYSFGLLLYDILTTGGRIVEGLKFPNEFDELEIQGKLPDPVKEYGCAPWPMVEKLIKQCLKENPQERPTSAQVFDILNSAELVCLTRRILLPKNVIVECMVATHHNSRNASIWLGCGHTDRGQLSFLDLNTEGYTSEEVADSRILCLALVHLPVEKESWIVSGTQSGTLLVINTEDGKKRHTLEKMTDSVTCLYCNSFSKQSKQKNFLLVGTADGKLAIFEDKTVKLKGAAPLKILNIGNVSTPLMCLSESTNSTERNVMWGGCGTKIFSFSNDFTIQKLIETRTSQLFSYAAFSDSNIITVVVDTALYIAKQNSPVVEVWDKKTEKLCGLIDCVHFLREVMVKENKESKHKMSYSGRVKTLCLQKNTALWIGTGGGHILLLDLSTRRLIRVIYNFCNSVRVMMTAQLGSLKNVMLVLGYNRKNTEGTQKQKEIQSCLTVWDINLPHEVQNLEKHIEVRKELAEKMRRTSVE
assay_explanation: LRRK2 kinase activity assay (LanthaScreen TR-FRET), wild type
conditions: 400 nM LRRKtide, 25 μM ATP, 60 min at room temperature; read-out: LRRK2 WT IC50
pIC50: −log10 of the molar value.
parameter_measured: pIC50

Examples from the recorded data:
{"compound": "CC1=C(C(=O)Nc2ccc3[nH]nc(-c4ccnc(N5CCOCC5)c4)c3c2)Cn2nnnc2N1C [Example 7]", "pIC50": "≥ 7.00"}
{"compound": "CC1=C(C(=O)Nc2ccc3[nH]ncc3c2)Cn2nnnc2N1C(=O)N(C)C [Example 12]", "pIC50": "6.00 to 7.00"}
{"compound": "CC1=C(C(=O)Nc2ccc3[nH]ncc3c2F)Cn2nnnc2N1C [Example 14]", "pIC50": "5.00 to 6.00"}
{"compound": "CC1=C(C(=O)Nc2ccc3[nH]nc(C(N)=O)c3c2)Cn2nnnc2N1C [Example 18]", "pIC50": "6.00 to 7.00"}
{"compound": "CC1=C(C(=O)Nc2ccc3[nH]nc(-c4cc(N5CCOCC5)ncn4)c3c2)Cn2nnnc2N1C [Example 9]", "pIC50": "≥ 7.00"}
{"compound": "CC1=C(C(=O)Nc2ccc3[nH]ncc3c2)Cn2nnnc2N1c1ccccc1 [Example 13]", "pIC50": "≥ 7.00"}

Below: the item to evaluate.
Ask | Please report the recorded pIC50 for CCC1C(C(=O)Nc2ccc3[nH]ncc3c2)=C(C)N(C)c2nnnn21 (racemic) [Example 8] .
Reply | 6.00 to 7.00

###

subject_of_test: Recombinant wild type LRRK2 protein (Homo sapiens, UniProt Q5S007)
assay_explanation: LRRK2 kinase activity assay (LanthaScreen TR-FRET), wild type
conditions: 400 nM LRRKtide, 25 μM ATP, 60 min at room temperature; read-out: LRRK2 WT IC50
pIC50: −log10 of the molar value.
parameter_measured: pIC50

Examples from the recorded data:
{"mol": "CC1=C(C(=O)Nc2ccc3[nH]c(=O)oc3c2)Cn2nnnc2N1C", "pIC50": "< 5.00"}
{"mol": "CC1=C(C(=O)Nc2ccc3[nH]nc(-c4ccc(S(N)(=O)=O)cc4)c3c2)Cn2nnnc2N1C", "pIC50": "≥ 7.00"}
{"mol": "CC1=C(C(=O)Nc2ccc3[nH]c(=O)[nH]c3c2)Cn2nnnc2N1C", "pIC50": "5.00 to 6.00"}
{"mol": "CC1=C(C(=O)Nc2ccc3[nH]nc(-c4ccncc4)c3c2)[C@@H](C)n2nnnc2N1C", "pIC50": "≥ 7.00"}

Below: the item to evaluate.
Ask | Lookup: pIC50 / Recombinant wild type LRRK2 protein (Homo sapiens, UniProt Q5S007) / `CC1=C(C(=O)Nc2ccc3c(c2)C(C)(C)NC3=O)[C@@H](C)n2nnnc2N1C`
Reply | < 5.00
